B1: glmS ribozyme (parent)
chain: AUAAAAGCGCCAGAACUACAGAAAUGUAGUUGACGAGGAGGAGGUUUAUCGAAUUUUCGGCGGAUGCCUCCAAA

Variants of: B1
Assay: self-cleavage kobs at 2500 uM GlcN6P; higher = faster cleavage; RNA array
Conditions: with glucosamine-6-phosphate
This sample holds only a part of the variants without activity.
Threshold rule: self-cleavage kobs at 2500 uM GlcN6P greater than or equal to 0.0001 s⁻¹ is rule met; below that, rule not met.

# example entries with known answers
- G7U A39U C50A: rule not met
- G41C A64G: rule met

Would you kindly look at the next entry?
Form field: self-cleavage kobs at 2500 uM GlcN6P at least 0.0001 s⁻¹? Entry: U46A U56A
rule met
